system: TbFolD; experiment: FolD dehydrogenase enzyme inhibition assay; format: biochemical, Trypanosoma brucei; conditions: recombinant TbFolD, dehydrogenase activity, 35 μM mTHF, 1 mM NADP+, 27 °C, pH 7.3
VALUE KIND: FolD inhibition IC50 (µM)
Give bare numbers, in µM.

Sample records with FolD inhibition IC50:
# input Tell me its FolD inhibition IC50 given Nc1nc(N)c(NC(=O)Nc2ccc(C(=O)N[C@@H](Cc3ccc(O)cc3)C(=O)O)cc2)c(=O)[nH]1 [Compound 19] as the entry.
# output 9.3

# input # return recorded FolD inhibition IC50 for input C[C@H](NC(=O)c1ccc(NC(=O)Nc2c(N)nc(N)[nH]c2=O)cc1)C(=O)O [Compound 17]
# output 6.3

# input Recall and state the measured FolD inhibition IC50 for Nc1nc(N)c(NC(=O)Nc2ccc(C(=O)NCCCC(=O)O)cc2)c(=O)[nH]1 [Compound 20] .
# output 213

Each compound below has a recorded value; state its FolD inhibition IC50.
1. Nc1nc2c(c(=O)[nH]1)N1C(=O)N(c3ccc(C(=O)NC(CCC(=O)O)C(=O)O)cc3)CC1CN2 (centres unmarked) [Compound 21, reference compound]
2. Nc1nc(N)c(NC(=O)Nc2ccc(C(=O)N[C@@H](Cc3ccccc3)C(=O)O)cc2)c(=O)[nH]1 [Compound 18]

# output
[20, 1.1]
